biological target: gp120; details: read-out: KD for gp120 binding; quantitative ELISA, FIG. 7
parameter measured: Kd (nM)

macromolecule sequence | target of assay | unit of measurement | value reported
CDRRDLPDWAIRAC [m2] | gp120 | nM | 6.5
